# subject.of.test: Acetyl-coenzyme A synthetase, cytoplasmic (Homo sapiens, UniProt Q9NR19)
# Sequence (Q9NR19 whole entry): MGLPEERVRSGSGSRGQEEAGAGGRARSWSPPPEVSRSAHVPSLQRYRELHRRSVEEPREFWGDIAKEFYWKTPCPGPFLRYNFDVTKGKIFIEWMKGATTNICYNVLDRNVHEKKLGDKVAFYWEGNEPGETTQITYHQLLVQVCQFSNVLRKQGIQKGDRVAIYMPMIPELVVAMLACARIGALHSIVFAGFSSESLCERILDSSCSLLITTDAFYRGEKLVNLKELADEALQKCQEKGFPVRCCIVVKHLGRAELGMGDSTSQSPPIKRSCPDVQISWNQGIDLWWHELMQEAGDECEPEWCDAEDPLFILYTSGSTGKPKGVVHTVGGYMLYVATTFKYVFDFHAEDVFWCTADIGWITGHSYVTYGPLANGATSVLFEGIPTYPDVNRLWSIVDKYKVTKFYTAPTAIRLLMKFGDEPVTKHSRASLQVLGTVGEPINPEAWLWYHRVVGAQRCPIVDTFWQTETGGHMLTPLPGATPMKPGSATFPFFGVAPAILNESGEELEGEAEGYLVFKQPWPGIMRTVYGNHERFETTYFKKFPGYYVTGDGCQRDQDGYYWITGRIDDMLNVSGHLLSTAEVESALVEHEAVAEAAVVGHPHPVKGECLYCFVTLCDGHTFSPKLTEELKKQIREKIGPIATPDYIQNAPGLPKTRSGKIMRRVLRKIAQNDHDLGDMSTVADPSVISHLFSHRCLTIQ
# method.notes: Inhibition of N-terminal 6x-histidine tagged human ACSS2 expressed in insect cells assessed as reduction in pyrophosphate production using CoA and ATP incubated for 30 mins by pyrophosphatase coupled enzymatic assay
pIC50: −log10 of the molar value.
experimental.readout: pIC50

- CCn1cc(-c2ccc3nc(C(O)(c4ccccc4)c4ccccc4)n(CC)c3c2)cn1: 6.60 to 7.30
- CCn1c(C(O)(c2ccccc2)c2ccccc2)nc2ccc(CNC(C)=O)cc21: 6.60 to 7.30
- CCn1c(C(O)(c2ccc(F)cc2F)c2ccc(F)cc2F)nc2ccc(C(=O)NC[C@@H](C)O)cc21: 6.60 to 7.30
- CCn1c(C(O)(c2ccc(C)cc2)c2ncccc2F)nc2ccc(CCCO)cc21 (stereo unspecified): 6.00 to 6.60
- CCc1cccc(OCc2ccc3nc(C(O)(c4ccccc4)c4ccccc4)n(CC)c3c2)c1: 6.60 to 7.30
- C[C@@H](O)CNC(=O)c1ccc2nc(C(O)(c3ccccc3)c3ccccc3)n(-c3ccccc3)c2c1: 6.00 to 6.60
- CCOc1ccc2c(c1)nc(C(O)(c1ccccc1)c1ccccc1)n2C: 6.60 to 7.30
- CCn1c(C(O)(c2ccccc2)c2ccc3cnn(C)c3c2)nc2ccc(C(=O)NC)cc21 (stereo unspecified): 6.60 to 7.30
- C[C@@H](O)CNC(=O)c1ccc2nc(C(O)(c3ccc(F)cc3F)c3ccc(F)cc3F)n(C)c2c1: 6.00 to 6.60
- CCn1c(C(O)(c2ccccc2)c2ccc(F)cc2F)nc2ccc(C(=O)NC[C@@H](C)O)cc21 (stereo partly specified): 6.60 to 7.30
- CCn1c(C(O)(c2ccccc2)c2ccccc2)nc2cc(F)c(C(=O)NC)cc21: 6.60 to 7.30
- CCN1CC[C@@H](NC(=O)c2ccc3nc(C(O)(c4ccccc4)c4ccccc4)n(CC)c3c2)C1: 6.60 to 7.30
- CCn1c(C(O)(c2ccccc2)c2ccccc2)nc2ccc(C(=O)NCCO)cc21: 6.00 to 6.60
- C[C@@H](O)CNC(=O)c1ccc2nc(C(O)(c3ccccc3)c3ccccc3)n(CC3CCOCC3)c2c1: < 6.00
- CCNC(=O)c1cccc(C(O)(c2ccccc2)c2nc3ccc(Cl)cc3n2C)c1 (stereo unspecified): < 6.00
- CCn1c(C(O)(c2ccccc2)c2ccccc2)nc2ccc(OCCNC)cc21: < 6.00

----------
# subject.of.test: UniProt:Q9NR19
# method.notes: Inhibition of N-terminal 6x-histidine tagged human ACSS2 expressed in insect cells assessed as reduction in pyrophosphate production using CoA and ATP incubated for 30 mins by pyrophosphatase coupled enzymatic assay
experimental.readout: IC50

* CCn1c(C(O)(c2ccccc2F)c2ncccc2F)nc2ccc(CCCO)cc21 (configuration not stated) | 0.05 to 0.249 µM
* CCn1c(C(O)(c2ccccc2)c2ccccc2)nc2ccc(C3(O)CCOCC3)cc21 | > 1 µM
* Cn1c(C(O)(c2ccccc2F)c2ccccc2F)nc2ccc(C(=O)NCCO)cc21 | 0.05 to 0.249 µM
* CCn1c(C(O)(c2ccccc2)c2ccccc2)nc2c(Cl)cc(C(=O)NC[C@@H](C)O)cc21 | 0.25 to 1 µM
* CNC(=O)c1ccc2nc(C(c3ccccc3)c3ccccc3)[nH]c2c1 | > 1 µM
* Cc1ccc2nc(C(O)(c3ccccc3)c3ncccc3C)n(C)c2c1 (configuration not stated) | > 1 µM
* CCn1c(C(O)(c2ccccc2)c2ccccc2)nc2ccc(C(=O)NC)c(F)c21 | 0.05 to 0.249 µM
